- Target Or Test System: fRF, fluorescently labelled H14 foldamer RF
- Procedure Details: fluorescence polarisation; direct FP: S100 protein diluted in 50 nM labeled foldamer, 20 mM HEPES pH 7.5, 150 mM NaCl, 1 mM CaCl2, 0.5 mM TCEP, 0.01% Tween20; quadratic fit (ProFit); detection threshold Kd 1 mM
Kindly supply the reported Kd values for the records listed here.

Example cases with answers are listed next.
| Binder | Kd |
| --- | --- |
| S100A14 (natural protein) MGQCRSANAEDAQEFSDVERAIETLIKNFHQYSVEGGKETLTPSELRDLVTQQLPHLMPSNCGLEEKIANLGSCNDSKLEFRSFWELIGEAAKSVKLERPVRGH | > 1 mM |
| S100A5 (natural protein) METPLEKALTTMVTTFHKYSGREGSKLTLSRKELKELIKKELCLGEMKESSIDDLMKSLDKNSDQEIDFKEYSVFLTMLCMAYNDFFLEDNK | 0.046 mM |

For every record below, what is its Kd?
1. S100A13 (natural protein) MAAEPLTELEESIETVVTTFFTFARQEGRKDSLSVNEFKELVTQQLPHLLKDVGSLDEKMKSLDVNQDSELKFNEYWRLIGELAKEIRKKKDLKIRKK
2. S100A3 (natural protein) MARPLEQAVAAIVCTFQEYAGRCGDKYKLCQAELKELLQKELATWTPTEFRECDYNKFMSVLDTNKDCEVDFVEYVRSLACLCLYCHEYFKDCPSEPPCSQ
3. S100B (natural protein) MSELEKAMVALIDVFHQYSGREGDKHKLKKSELKELINNELSHFLEEIKEQEVVDKVMETLDNDGDGECDFQEFMAFVAMVTTACHEFFEHE
4. S100P (natural protein) MTELETAMGMIIDVFSRYSGSEGSTQTLTKGELKVLMEKELPGFLQSGKDKDAVDKLLKDLDANGDAQVDFSEFIVFVAAITSACHKYFEKAGLK

["> 1 mM", "> 1 mM", "0.23 mM", "0.19 mM"]

For every record below, what is its Kd?
1. S100A12 (natural protein) MTKLEEHLEGIVNIFHQYSVRKGHFDTLSKGELKQLLTKELANTIKNIKDKAVIDEIFQGLDANQDEQVDFQEFISLVAIALKAAHYHTHKE
2. S100A9 (natural protein) MTCKMSQLERNIETIINTFHQYSVKLGHPDTLNQGEFKELVRKDLQNFLKKENKNEKVIEHIMEDLDTNADKQLSFEEFIMLMARLTWASHEKMHEGDEGPGHHHKPGLGEGTP

1. > 1 mM
2. > 1 mM

For every record below, what is its Kd?
1. S100Z (natural protein) MPTQLEMAMDTMIRIFHRYSGKERKRFKLSKGELKLLLQRELTEFLSCQKETQLVDKIVQDLDANKDNEVDFNEFVVMVAALTVACNDYFVEQLKKKGK
2. S100A8 (natural protein) MLTELEKALNSIIDVYHKYSLIKGNFHAVYRDDLKKLLETECPQYIRKKGADVWFKELDINTDGAVNFQEFLILVIKMGVAAHKKSHEESHKE
3. S100G (natural protein) MSTKKSPEELKRIFEKYAAKEGDPDQLSKDELKLLIQAEFPSLLKGPNTLDDLFQELDKNGDGEVSFEEFQVLVKKISQ
4. S100A11 (natural protein) MAKISSPTETERCIESLIAVFQKYAGKDGYNYTLSKTEFLSFMNTELAAFTKNQKDPGVLDRMMKKLDTNSDGQLDFSEFLNLIGGLAMACHDSFLKAVPSQKRT
5. S100A16 (natural protein) MSDCYTELEKAVIVLVENFYKYVSKYSLVKNKISKSSFREMLQKELNHMLSDTGNRKAADKLIQNLDANHDGRISFDEYWTLIGGITGPIAKLIHEQEQQSSS

["0.89 mM", "> 1 mM", "> 1 mM", "1 mM", "> 1 mM"]
